tested on: recombinant guanylate cyclase reporter cell line; assay: Effect on a recombinant guanylate cyclase reporter cell line; type: cell-based; conditions: in some cases mean values from individual determinations
Readout type: MEC (minimum effective concentration) (µM)
Give bare numbers, in µM.

Compound	Readout type	Units	Value measured
[2H]C([2H])([2H])CC(C)(N)CNC(=O)c1c(C)nc2c(OCc3c(F)cccc3F)nc(C)cn12 (single isomer, unassigned; enantiomer a)	MEC (minimum effective concentration)	µM	0.65
Cc1cn2c(C(=O)NC(C)(CO)c3nnn(C(F)F)n3)c(C)nc2c(OCc2c(F)cccc2F)n1 (racemic)	MEC (minimum effective concentration)	µM	0.10
Cc1cn2c(C(=O)N[C@@](C)(CO)c3nnc(C)s3)c(C)nc2c(OCc2c(F)cccc2F)n1	MEC (minimum effective concentration)	µM	0.65
Cc1cn2c(C(=O)NCC(C)(N)CC[Si](C)(C)C)c(C)nc2c(OCc2c(F)cccc2F)n1 (single isomer, unassigned; enantiomer a) [Example 4]	MEC (minimum effective concentration)	µM	1.0

[ask] Reported MEC (minimum effective concentration) for Cc1cn2c(C(=O)NCC(C)(N)CC[Si](C)(C)C)c(C)nc2c(OCc2c(F)cccc2F)n1 (single isomer, unassigned; enantiomer b) [Example 5] : what is it?
[reply] 1.0
